glycan array binding signal (z-score) overview
measured-target: Fuc(a1-2)Gal(b1-4)[Fuc(a1-3)]GlcNAc(b1-3)Gal(b1-4)[Fuc(a1-3)]GlcNAc(b1-3)Gal(b1-4)[Fuc(a1-3)]GlcNAc
method-description: glycan array binding signal (z-score within array); higher = stronger binding
particulars: glycan notation: IUPAC condensed, linker removed
This excerpt belongs to a sample that is enriched for the strongest signals.
Answer with a bare number; do not write a unit.

binder	value-measured
Erv46-EDTA (Saccharomyces cerevisiae), P39727 (protein) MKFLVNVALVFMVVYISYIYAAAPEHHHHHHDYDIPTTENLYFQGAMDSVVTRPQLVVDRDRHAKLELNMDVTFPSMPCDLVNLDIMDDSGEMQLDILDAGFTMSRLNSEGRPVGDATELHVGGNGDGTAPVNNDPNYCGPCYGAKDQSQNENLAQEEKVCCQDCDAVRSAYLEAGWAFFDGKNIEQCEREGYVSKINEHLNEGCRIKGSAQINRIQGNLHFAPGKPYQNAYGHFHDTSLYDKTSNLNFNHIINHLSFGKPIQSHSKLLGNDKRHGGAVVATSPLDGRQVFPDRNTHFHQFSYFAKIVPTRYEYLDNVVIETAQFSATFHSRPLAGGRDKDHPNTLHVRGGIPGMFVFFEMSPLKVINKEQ	-0.775

Moving on to the next binder.
Entry DGL (Dioclea grandiflora), P08902 (protein) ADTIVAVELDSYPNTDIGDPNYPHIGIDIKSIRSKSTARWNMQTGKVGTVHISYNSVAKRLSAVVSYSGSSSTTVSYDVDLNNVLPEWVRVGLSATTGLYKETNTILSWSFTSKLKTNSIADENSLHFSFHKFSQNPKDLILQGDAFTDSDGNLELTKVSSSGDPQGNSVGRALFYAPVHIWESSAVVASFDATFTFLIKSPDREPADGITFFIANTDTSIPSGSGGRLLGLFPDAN needs its glycan array binding signal (z-score) filled in; supply it. -0.168
